Target: Nuclear receptor subfamily 1 group I member 2 (Homo sapiens) (UniProt O75469)
Sequence (O75469 whole entry, looked up): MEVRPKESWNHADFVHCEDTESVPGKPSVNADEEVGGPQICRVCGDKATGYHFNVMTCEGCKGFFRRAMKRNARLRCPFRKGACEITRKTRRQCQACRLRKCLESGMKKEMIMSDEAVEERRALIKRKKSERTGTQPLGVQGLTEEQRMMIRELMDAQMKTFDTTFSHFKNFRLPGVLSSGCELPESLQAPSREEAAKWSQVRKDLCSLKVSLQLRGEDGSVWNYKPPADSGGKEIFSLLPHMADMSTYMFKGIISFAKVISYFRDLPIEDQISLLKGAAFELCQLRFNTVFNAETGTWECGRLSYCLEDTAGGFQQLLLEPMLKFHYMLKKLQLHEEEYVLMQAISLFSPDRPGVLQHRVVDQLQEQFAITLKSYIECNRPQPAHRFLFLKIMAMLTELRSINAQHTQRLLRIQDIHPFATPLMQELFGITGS
Assay: ATG_PXR_TRANS: Attagene TRANS-FACTORIAL HepG2 Assay for human Pregnane X Receptor (PXR) (AID 2283008)
Results filed as inconclusive are left out. Activity calls are given as the source filed them. Rule for the calls: active = hit-call score of the fitted dose curve at least 0.9, where 1 is the maximum; inconclusive = response in the unintended direction; inactive = score below 0.9.
Would you mind answering with one of these outcomes? active, inactive

Hey, what did the test say about Cc1ccc(O)c(C(C)(C)C)c1 ? active

Could you do the same for CCCCCC=CCC(=O)OC , please? inactive

Could you do the same for O=C1CCCCCCCCCCCCCCO1 , please? active

Could you do the same for CC(C)C(C)(C)C(C)(C)C(C)(C)S , please? active

Could you do the same for CC(C)=CCC[C@](C)(O)[C@@H]1CC=C(C)CC1 , please? active

Could you do the same for CNC(=O)Oc1ccc2c(c1)[C@]1(C)CCN(C)[C@@H]1N2C , please? inactive

Could you do the same for Cc1ccc(C(=O)O)o1 , please? inactive

Could you do the same for NNc1nc(-c2ccc(N)cc2)cs1 , please? inactive

Could you do the same for CC(C)(C)c1n[nH]c(=S)n(N)c1=O , please? inactive

Could you do the same for CCCCCCCCCCCCSC , please? inactive

Could you do the same for O=C(O)c1ccc(C(=O)O)cc1 , please? inactive

Could you do the same for CC(C)OP(=O)(CP(=O)(OC(C)C)OC(C)C)OC(C)C , please? active

Could you do the same for C=C(C)C(=O)OCc1ccccc1 , please? inactive

Could you do the same for O=C(O)c1snc(Cl)c1Cl , please? inactive

Could you do the same for Cc1ccc(S)cc1 , please? inactive
